Recorded Dmax values for a group of molecules are listed next.
target: HiBit-WIZ fusion protein (Homo sapiens, UniProt O95785+Q96SW2); assay: Quantification of WIZ protein levels in HiBit tag fusion protein assay (WIZ HiBit assay in 293T cells); format: cell-based; parameters: dose or concentration left out as unconfirmed; details: HEK-293T, 100 minus Amax; 293T cells; read-out: % degradation of WIZ (100-Amax)
Sequence (O95785 whole entry, the tested form may be a part): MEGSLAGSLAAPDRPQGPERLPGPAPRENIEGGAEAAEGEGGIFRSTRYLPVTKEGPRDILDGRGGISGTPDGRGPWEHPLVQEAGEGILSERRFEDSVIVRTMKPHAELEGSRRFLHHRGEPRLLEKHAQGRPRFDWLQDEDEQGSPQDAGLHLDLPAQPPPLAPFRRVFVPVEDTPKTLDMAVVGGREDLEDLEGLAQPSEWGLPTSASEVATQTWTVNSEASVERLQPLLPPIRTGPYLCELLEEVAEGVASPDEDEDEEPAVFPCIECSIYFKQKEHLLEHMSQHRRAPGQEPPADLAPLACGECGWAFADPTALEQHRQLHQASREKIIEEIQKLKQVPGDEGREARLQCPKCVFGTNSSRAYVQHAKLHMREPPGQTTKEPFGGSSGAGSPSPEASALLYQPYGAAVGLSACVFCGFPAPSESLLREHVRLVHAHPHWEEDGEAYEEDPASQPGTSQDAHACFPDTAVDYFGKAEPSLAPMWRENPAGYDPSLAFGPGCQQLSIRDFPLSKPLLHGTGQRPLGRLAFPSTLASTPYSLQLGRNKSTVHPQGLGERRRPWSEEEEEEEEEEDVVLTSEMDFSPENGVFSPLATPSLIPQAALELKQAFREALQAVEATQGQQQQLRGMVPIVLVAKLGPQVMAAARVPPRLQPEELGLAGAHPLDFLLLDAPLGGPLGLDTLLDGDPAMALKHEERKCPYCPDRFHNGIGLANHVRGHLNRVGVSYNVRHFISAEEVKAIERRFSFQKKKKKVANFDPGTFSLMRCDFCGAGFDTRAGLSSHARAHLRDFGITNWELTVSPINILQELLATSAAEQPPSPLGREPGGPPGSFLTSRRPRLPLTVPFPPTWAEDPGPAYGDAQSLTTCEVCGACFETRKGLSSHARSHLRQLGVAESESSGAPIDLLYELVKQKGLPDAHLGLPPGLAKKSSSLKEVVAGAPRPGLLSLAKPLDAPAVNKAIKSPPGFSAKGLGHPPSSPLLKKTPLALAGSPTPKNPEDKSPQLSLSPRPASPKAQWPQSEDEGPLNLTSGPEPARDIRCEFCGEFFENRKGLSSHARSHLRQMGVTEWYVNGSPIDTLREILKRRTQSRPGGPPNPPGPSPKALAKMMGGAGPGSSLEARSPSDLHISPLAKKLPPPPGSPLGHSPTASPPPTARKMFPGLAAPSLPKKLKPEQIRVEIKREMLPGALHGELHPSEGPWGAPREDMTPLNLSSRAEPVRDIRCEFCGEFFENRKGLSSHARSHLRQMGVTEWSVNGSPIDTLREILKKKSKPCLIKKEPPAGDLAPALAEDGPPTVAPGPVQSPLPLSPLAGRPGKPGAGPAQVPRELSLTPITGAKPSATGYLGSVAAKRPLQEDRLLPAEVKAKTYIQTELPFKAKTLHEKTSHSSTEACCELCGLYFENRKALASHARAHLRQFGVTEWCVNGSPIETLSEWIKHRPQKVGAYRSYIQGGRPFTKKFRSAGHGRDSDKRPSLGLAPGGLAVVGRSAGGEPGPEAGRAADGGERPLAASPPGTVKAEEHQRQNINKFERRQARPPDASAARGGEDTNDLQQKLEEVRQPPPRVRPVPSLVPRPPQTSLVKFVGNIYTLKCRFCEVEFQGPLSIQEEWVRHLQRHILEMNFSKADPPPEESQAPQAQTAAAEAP
Sequence (Q96SW2 whole entry, the tested form may be a part): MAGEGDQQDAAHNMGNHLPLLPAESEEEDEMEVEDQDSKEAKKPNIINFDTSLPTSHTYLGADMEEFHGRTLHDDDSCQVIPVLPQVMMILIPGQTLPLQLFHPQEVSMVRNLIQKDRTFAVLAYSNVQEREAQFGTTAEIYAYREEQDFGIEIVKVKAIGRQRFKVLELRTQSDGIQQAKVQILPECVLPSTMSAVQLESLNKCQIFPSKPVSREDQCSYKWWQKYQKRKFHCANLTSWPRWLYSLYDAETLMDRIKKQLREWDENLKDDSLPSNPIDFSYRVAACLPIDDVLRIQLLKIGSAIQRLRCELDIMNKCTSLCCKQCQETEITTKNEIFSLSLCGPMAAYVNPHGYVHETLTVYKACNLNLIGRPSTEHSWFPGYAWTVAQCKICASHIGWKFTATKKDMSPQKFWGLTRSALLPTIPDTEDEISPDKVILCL
Sequence (Q16531 whole entry partner, the tested form may be a part): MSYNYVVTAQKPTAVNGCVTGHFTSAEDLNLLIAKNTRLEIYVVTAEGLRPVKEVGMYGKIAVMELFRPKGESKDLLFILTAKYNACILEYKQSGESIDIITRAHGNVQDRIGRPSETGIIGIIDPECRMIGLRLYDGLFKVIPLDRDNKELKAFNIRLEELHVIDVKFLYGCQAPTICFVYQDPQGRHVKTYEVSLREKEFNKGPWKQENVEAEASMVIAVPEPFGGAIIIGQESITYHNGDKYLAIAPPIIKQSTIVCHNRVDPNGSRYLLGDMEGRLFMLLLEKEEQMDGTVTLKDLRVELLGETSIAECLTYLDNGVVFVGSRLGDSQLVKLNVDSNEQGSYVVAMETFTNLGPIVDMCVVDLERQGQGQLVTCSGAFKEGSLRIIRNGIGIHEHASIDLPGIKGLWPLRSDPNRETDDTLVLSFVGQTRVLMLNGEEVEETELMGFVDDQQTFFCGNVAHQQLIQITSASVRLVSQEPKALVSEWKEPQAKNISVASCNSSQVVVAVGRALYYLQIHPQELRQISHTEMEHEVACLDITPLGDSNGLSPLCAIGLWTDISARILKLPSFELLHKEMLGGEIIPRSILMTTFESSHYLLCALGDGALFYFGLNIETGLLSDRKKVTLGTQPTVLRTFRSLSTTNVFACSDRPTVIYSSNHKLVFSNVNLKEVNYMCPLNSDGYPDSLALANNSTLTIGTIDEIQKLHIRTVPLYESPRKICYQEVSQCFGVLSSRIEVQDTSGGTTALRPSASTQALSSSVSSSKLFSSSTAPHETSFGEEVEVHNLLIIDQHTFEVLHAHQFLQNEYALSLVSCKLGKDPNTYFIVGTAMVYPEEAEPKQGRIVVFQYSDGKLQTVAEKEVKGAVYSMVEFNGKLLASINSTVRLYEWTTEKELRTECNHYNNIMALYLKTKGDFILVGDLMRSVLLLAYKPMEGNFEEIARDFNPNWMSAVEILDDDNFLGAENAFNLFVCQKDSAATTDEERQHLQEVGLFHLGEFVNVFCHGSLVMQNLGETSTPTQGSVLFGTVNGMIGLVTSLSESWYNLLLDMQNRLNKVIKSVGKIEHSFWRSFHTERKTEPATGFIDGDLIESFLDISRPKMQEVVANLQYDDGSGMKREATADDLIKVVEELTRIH

>  <molecule>
CCN1CCCC(C)(C)C1COc1ccc2c(c1)CN(C1CCC(=O)NC1=O)C2=O (single isomer, unassigned) [Compound I-17]

>  <test.system>
HiBit-WIZ fusion protein (Homo sapiens, UniProt O95785+Q96SW2)

>  <Dmax>
26.4%

$$$$
>  <molecule>
O=C1CCC(N2Cc3cc(OC[C@H]4CCCCN4Cc4ccc(O)cc4)ccc3C2=O)C(=O)N1 (stereo partly shown) [Compound I-148]

>  <test.system>
HiBit-WIZ fusion protein (Homo sapiens, UniProt O95785+Q96SW2)

>  <Dmax>
94.5%

$$$$
>  <molecule>
O=C1CCC(N2Cc3cc(OC[C@@H]4CCCCN4Cc4ccccc4Cn4cncn4)ccc3C2=O)C(=O)N1 (stereo partly shown) [Compound I-50q]

>  <test.system>
HiBit-WIZ fusion protein (Homo sapiens, UniProt O95785+Q96SW2)

>  <Dmax>
4.5%

$$$$
>  <molecule>
CN1CCOc2cc(C(=O)N3CCCC[C@H]3COc3ccc4c(c3)CN(C3CCC(=O)NC3=O)C4=O)cnc21 (stereo partly shown) [Compound I-72ij]

>  <test.system>
HiBit-WIZ fusion protein (Homo sapiens, UniProt O95785+Q96SW2)

>  <Dmax>
68.7%

$$$$
>  <molecule>
O=C1CCC(N2Cc3cc(OC[C@@H]4CCCCN4C(=O)c4[nH]nc5c4CCCC5)ccc3C2=O)C(=O)N1 (stereo partly shown) [Compound I-72ix]

>  <test.system>
HiBit-WIZ fusion protein (Homo sapiens, UniProt O95785+Q96SW2)

>  <Dmax>
13%

$$$$
>  <molecule>
CCN1[C@@H]2CC[C@@H](C2)[C@H]1COc1ccc2c(c1)CN(C1CCC(=O)NC1=O)C2=O (stereo partly shown) [Compound I-223]

>  <test.system>
HiBit-WIZ fusion protein (Homo sapiens, UniProt O95785+Q96SW2)

>  <Dmax>
82.8%

$$$$
>  <molecule>
O=C1CCC(N2Cc3cc(OC[C@@H]4CCCCN4C(=O)c4snnc4-c4ccccc4)ccc3C2=O)C(=O)N1 (stereo partly shown) [Compound I-72fq]

>  <test.system>
HiBit-WIZ fusion protein (Homo sapiens, UniProt O95785+Q96SW2)

>  <Dmax>
0.3%

$$$$
